- target.or.system: Transforming growth factor beta-1 proprotein/Mothers against decapentaplegic homolog 3 (Mus musculus) (UniProt P04202+Q8BUN5)
- Sequence (P04202 279-390 limits assumed): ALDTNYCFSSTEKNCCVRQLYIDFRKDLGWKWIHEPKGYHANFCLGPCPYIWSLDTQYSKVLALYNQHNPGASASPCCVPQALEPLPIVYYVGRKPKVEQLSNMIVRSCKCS
- Sequence (Q8BUN5 2-425 partner limits assumed): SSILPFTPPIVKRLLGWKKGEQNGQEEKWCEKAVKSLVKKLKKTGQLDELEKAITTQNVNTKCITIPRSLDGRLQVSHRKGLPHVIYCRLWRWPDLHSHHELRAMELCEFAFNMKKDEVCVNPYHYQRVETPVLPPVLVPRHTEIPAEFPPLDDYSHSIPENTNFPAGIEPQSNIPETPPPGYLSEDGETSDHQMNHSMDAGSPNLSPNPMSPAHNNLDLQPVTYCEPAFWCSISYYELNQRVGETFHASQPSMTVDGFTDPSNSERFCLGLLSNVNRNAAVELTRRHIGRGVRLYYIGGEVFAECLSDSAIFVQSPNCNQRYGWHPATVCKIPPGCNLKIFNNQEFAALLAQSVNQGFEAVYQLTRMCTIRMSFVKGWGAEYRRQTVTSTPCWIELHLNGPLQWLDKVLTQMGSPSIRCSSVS
- experiment: Inhibition of TGF-beta1/Smad3 signalling in TGF-beta1 treated mouse NIH3T3 cells transfected with (CAGA)12-Lux reporter gene assessed as suppressive ratio at 10 uM incubated for 18 hrs by luciferase based analysis relative to control
- Type: cell-based
- Parameters: scale not given: the % may be the effect or the level left
Assign labels as follows, please: Met for Activity below 40%; Not met for Activity equal to or exceeding 40%.

{"columns": ["test.smiles", "category.label"],
 "data": [
  ["C=C[C@]1(C)C[C@@H](O)[C@]2(C)[C@H](C)CC[C@]3(C/C(=C\\c4ccc(C(=O)NC5CCCCC5)cc4)C(=O)[C@H]32)[C@@H](C)[C@@H]1O", "Not met"],
  ["C=C[C@]1(C)C[C@@H](O)[C@]2(C)[C@H](C)CC[C@]3(C/C(=C\\CCCC)C(=O)[C@H]32)[C@@H](C)[C@@H]1O", "Met"],
  ["C=C[C@]1(C)C[C@@H](O)[C@]2(C)[C@H](C)CC[C@]3(C/C(=C\\CCC)C(=O)[C@H]32)[C@@H](C)[C@@H]1O", "Met"],
  ["C=C[C@]1(C)C[C@@H](O)[C@]2(C)[C@H](C)CC[C@]3(C/C(=C\\c4ccc(F)cc4)C(=O)[C@H]32)[C@@H](C)[C@@H]1O", "Met"],
  ["C=C[C@]1(C)C[C@@H](O)[C@]2(C)[C@H](C)CC[C@]3(C/C(=C\\c4c(C)cc(C)cc4C)C(=O)[C@H]32)[C@@H](C)[C@@H]1O", "Not met"],
  ["C=C[C@]1(C)C[C@@H](O)[C@]2(C)[C@H](C)CC[C@]3(C/C(=C\\c4ccc(C(C)(C)C)cc4)C(=O)[C@H]32)[C@@H](C)[C@@H]1O", "Met"]
]}

###

- target.or.system: Transforming growth factor beta-1 proprotein/Mothers against decapentaplegic homolog 3 (Mus musculus) (UniProt P04202+Q8BUN5)
- experiment: Inhibition of TGF-beta1/Smad3 signalling in TGF-beta1 treated mouse NIH3T3 cells transfected with (CAGA)12-Lux reporter gene assessed as suppressive ratio at 10 uM incubated for 18 hrs by luciferase based analysis relative to control
- Type: cell-based
- Design: scale not given: the % may be the effect or the level left
Assign labels as follows, please: yes for Activity below 30%; no for Activity equal to or exceeding 30%.

{"columns": ["test.smiles", "category.label"],
 "data": [
  ["C=C[C@]1(C)C[C@@H](O)[C@]2(C)[C@H](C)CC[C@]3(C/C(=C\\c4ccc(C(=O)N5CCOCC5)cc4)C(=O)[C@H]32)[C@@H](C)[C@@H]1O", "yes"],
  ["C=C[C@]1(C)C[C@@H](O)[C@]2(C)[C@H](C)CC[C@]3(C/C(=C\\c4cccc(C(=O)N5CCN(C)CC5)c4)C(=O)[C@H]32)[C@@H](C)[C@@H]1O", "yes"],
  ["C=C[C@]1(C)C[C@@H](O)[C@]2(C)[C@H](C)CC[C@]3(C/C(=C\\c4ccc(C(=O)Nc5ccccc5)cc4)C(=O)[C@H]32)[C@@H](C)[C@@H]1O", "yes"],
  ["C=C[C@]1(C)C[C@@H](O)[C@]2(C)[C@H](C)CC[C@]3(C/C(=C\\C(C)(C)C)C(=O)[C@H]32)[C@@H](C)[C@@H]1O", "yes"],
  ["C=C[C@]1(C)C[C@@H](O)[C@]2(C)[C@H](C)CC[C@]3(C/C(=C\\c4ccccc4N4CCOCC4)C(=O)[C@H]32)[C@@H](C)[C@@H]1O", "yes"],
  ["C=C[C@]1(C)C[C@@H](O)[C@]2(C)[C@H](C)CC[C@]3(C/C(=C\\C=C\\c4ccccc4)C(=O)[C@H]32)[C@@H](C)[C@@H]1O", "no"],
  ["C=C[C@]1(C)C[C@@H](O)[C@]2(C)[C@H](C)CC[C@]3(C/C(=C\\c4cccc(C)c4)C(=O)[C@H]32)[C@@H](C)[C@@H]1O", "yes"],
  ["C=C[C@]1(C)C[C@@H](O)[C@]2(C)[C@H](C)CC[C@]3(C/C(=C\\c4cccc(C(=O)NC5CCCCC5)c4)C(=O)[C@H]32)[C@@H](C)[C@@H]1O", "yes"],
  ["C=C[C@]1(C)C[C@@H](O)[C@]2(C)[C@H](C)CC[C@]3(C/C(=C\\c4cccc(C(=O)O)c4)C(=O)[C@H]32)[C@@H](C)[C@@H]1O", "yes"],
  ["C=C[C@]1(C)C[C@@H](O)[C@]2(C)[C@H](C)CC[C@]3(C/C(=C\\c4ccccc4)C(=O)[C@H]32)[C@@H](C)[C@@H]1O", "yes"],
  ["C=C[C@]1(C)C[C@@H](O)[C@]2(C)[C@H](C)CC[C@]3(C/C(=C\\c4cccnc4)C(=O)[C@H]32)[C@@H](C)[C@@H]1O", "yes"],
  ["C=C[C@]1(C)C[C@@H](O)[C@]2(C)[C@H](C)CC[C@]3(C/C(=C\\c4ccc5ccccc5c4)C(=O)[C@H]32)[C@@H](C)[C@@H]1O", "yes"],
  ["C=C[C@]1(C)C[C@@H](O)[C@]2(C)[C@H](C)CC[C@]3(C/C(=C\\c4ccc(C(F)(F)F)cc4)C(=O)[C@H]32)[C@@H](C)[C@@H]1O", "no"],
  ["C=C[C@]1(C)C[C@@H](O)[C@]2(C)[C@H](C)CC[C@]3(C/C(=C\\c4ncccc4F)C(=O)[C@H]32)[C@@H](C)[C@@H]1O", "yes"],
  ["C=C[C@]1(C)C[C@@H](O)[C@]2(C)[C@H](C)CC[C@]3(C/C(=C\\C4CC4)C(=O)[C@H]32)[C@@H](C)[C@@H]1O", "yes"],
  ["C=C[C@]1(C)C[C@@H](O)[C@]2(C)[C@H](C)CC[C@]3(C/C(=C\\c4ccc(C(=O)N5CCN(C)CC5)cc4)C(=O)[C@H]32)[C@@H](C)[C@@H]1O", "no"],
  ["C=C[C@]1(C)C[C@@H](O)[C@]2(C)[C@H](C)CC[C@]3(C/C(=C\\c4ccco4)C(=O)[C@H]32)[C@@H](C)[C@@H]1O", "no"],
  ["C=C[C@]1(C)C[C@@H](O)[C@]2(C)[C@H](C)CC[C@]3(C/C(=C\\c4ccc(C(=O)N(C)C)cc4)C(=O)[C@H]32)[C@@H](C)[C@@H]1O", "yes"],
  ["C=C[C@]1(C)C[C@@H](O)[C@]2(C)[C@H](C)CC[C@]3(C/C(=C\\c4ccc(OC)cc4)C(=O)[C@H]32)[C@@H](C)[C@@H]1O", "yes"],
  ["C=C[C@]1(C)C[C@@H](O)[C@]2(C)[C@H](C)CC[C@]3(C/C(=C\\C4CCCCC4)C(=O)[C@H]32)[C@@H](C)[C@@H]1O", "no"],
  ["C=C[C@]1(C)C[C@@H](O)[C@]2(C)[C@H](C)CC[C@]3(C/C(=C\\c4ccc(C)cc4)C(=O)[C@H]32)[C@@H](C)[C@@H]1O", "no"],
  ["C=C[C@]1(C)C[C@@H](O)[C@]2(C)[C@H](C)CC[C@]3(C/C(=C\\c4ccc(C(=O)N5CCCCC5)cc4)C(=O)[C@H]32)[C@@H](C)[C@@H]1O", "yes"],
  ["C=C[C@]1(C)C[C@@H](O)[C@]2(C)[C@H](C)CC[C@]3(C/C(=C\\c4ccc(Cl)cc4)C(=O)[C@H]32)[C@@H](C)[C@@H]1O", "no"],
  ["C=C[C@]1(C)C[C@@H](O)[C@]2(C)[C@H](C)CC[C@]3(C/C(=C\\c4ccc(C(=O)O)cc4)C(=O)[C@H]32)[C@@H](C)[C@@H]1O", "no"]
]}
